Quick reference for concentration at 4 h among some molecules
- ASSAY_REMARKS: Blood concentration, oral, rats, suspended in CMC aqueous solution (Example 17)
- Format: in vivo, Male Wistar rats
- CONDITIONS_USED: blood, 4 hrs., 50 mg/kg oral, rat, read-out: Blood Concentration of the Compound
Number plus unit, in that order.

{"CHEMICAL_STRUCTURE": "CO[C@@]1(NC(=O)CSc2nc(C[C@H](N)C(=O)O)c[nH]2)C(=O)N2C(C(=O)O)=C(CSc3nnnn3C)CS[C@@H]21", "concentration at 4 h": "1.1 µg/mL"}
{"CHEMICAL_STRUCTURE": "CO[C@@]1(NC(=O)CSc2nc(C[C@H](N)C(=O)OCOC(C)=O)c[nH]2)C(=O)N2C(C(=O)OCOC(C)=O)=C(CSc3nnnn3C)CS[C@@H]21", "concentration at 4 h": "2.3 µg/mL"}
{"CHEMICAL_STRUCTURE": "CO[C@@]1(NC(=O)CSc2nc(C[C@H](N)C(=O)O)c[nH]2)C(=O)N2C(C(=O)O)=C(COC(C)=O)CS[C@@H]21", "concentration at 4 h": "0.4 µg/mL"}

// field: concentration at 4 h; key: `Cn1nnnc1SCC1=C(C(=O)O)N2C(=O)[C@@H](NC(=O)CSc3nc(C[C@H](NC=O)C(=O)O)c[nH]3)[C@H]2SC1` ; value = 1.7 µg/mL

The values you see were collected from patent US4477659A.
